Sourced from patent US10118916B2

Measured pEC50 accompanies every entry in the list below.
Biological target: F508delCFTR (Homo sapiens, UniProt P13569, DEL508-508)
Sequence (P13569 with tags, fused parts or gaps DEL508-508): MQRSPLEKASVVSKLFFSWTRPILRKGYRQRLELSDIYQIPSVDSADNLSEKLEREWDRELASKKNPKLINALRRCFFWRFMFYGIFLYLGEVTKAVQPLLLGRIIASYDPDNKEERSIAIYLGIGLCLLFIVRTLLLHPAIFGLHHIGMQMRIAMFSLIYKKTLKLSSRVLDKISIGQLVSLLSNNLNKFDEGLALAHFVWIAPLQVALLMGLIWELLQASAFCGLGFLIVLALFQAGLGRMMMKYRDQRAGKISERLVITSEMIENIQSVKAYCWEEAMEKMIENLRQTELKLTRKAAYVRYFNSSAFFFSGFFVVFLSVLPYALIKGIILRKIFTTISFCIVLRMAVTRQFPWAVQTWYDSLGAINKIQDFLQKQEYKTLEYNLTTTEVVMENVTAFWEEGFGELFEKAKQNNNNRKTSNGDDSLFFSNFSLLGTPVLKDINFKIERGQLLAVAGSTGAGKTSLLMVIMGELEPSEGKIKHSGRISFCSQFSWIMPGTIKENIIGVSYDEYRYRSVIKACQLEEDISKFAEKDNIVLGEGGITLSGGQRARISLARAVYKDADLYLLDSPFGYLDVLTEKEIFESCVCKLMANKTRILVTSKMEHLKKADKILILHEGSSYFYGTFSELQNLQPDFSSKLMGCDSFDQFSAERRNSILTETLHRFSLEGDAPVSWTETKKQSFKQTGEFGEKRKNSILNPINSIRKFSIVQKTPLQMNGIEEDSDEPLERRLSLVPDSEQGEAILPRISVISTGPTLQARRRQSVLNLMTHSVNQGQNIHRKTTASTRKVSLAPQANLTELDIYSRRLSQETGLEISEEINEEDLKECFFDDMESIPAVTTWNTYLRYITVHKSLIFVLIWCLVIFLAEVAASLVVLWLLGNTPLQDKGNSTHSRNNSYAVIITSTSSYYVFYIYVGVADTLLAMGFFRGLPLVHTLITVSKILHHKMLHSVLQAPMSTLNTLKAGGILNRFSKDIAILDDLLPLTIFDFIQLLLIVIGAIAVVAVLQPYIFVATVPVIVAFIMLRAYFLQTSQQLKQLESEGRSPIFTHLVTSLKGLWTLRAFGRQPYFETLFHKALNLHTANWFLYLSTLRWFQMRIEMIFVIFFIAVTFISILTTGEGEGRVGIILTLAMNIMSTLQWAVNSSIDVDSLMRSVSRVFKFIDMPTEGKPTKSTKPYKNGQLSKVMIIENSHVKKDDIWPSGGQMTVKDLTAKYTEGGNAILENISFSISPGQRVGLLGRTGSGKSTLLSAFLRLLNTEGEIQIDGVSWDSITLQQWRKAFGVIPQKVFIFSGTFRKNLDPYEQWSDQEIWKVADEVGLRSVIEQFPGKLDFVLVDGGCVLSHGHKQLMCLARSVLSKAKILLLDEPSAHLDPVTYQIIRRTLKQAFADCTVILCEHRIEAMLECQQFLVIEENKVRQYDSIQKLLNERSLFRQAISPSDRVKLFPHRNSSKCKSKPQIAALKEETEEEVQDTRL
Assay: Cell Surface Expression-Horse Radish Peroxidase (CSE-HRP) assay
Settings: CFBE41o-F508delCFTR-HRP cells; F508delCFTR cell surface expression, luminescence; 18-24 hours at 33° C.; highest concentration 20 μM
pEC50: −log10 of the molar value.

MOLECULE | RELATION SIGN | pEC50
CC1(C(=O)N[C@@H]2C[C@H](c3cccc(C(=O)O)c3)Oc3ccccc32)CCc2cc(OC(F)(F)F)ccc21 (stereo partly shown) [Example 55] | = | 5.57
COC(=O)c1cccc([C@H]2C[C@@H](NC(=O)C3(C)CCc4ccc(OC(F)(F)F)cc43)c3ccc(OC)cc3O2)c1 (stereo partly shown) [Example 57] | < | 4.70
COc1ccc2c(c1)O[C@@H](c1cccc(C(=O)O)c1)C[C@H]2NC(=O)C1(C)CCc2ccc(OC(F)(F)F)cc21 (stereo partly shown) [Example 58] | = | 5.65
COc1ccc2c(c1)O[C@@H](c1ccc(C(=O)O)cc1)C[C@H]2NC(=O)C1(c2ccc(C)c(OC)c2)CC1 [Example 86] | = | 6.24
COc1ccc2c(c1)OC(c1ccc(OC)c(OC)c1)CC2NC(=O)C1(c2ccc(Cl)cc2)CC1 (stereo not shown) [Example 21] | = | 5.94
COc1ccc2c(c1)O[C@@H](c1ccc(C(=O)O)cc1)C[C@H]2NC(=O)C1(c2ccccc2)CC1 [Example 75] | = | 6.02
COc1ccc2c(c1)O[C@@H](c1ccc(C(=O)O)cc1)C[C@H]2NC(=O)[C@]1(C)CCc2cc(C)ccc21 (single isomer, unassigned) [Example 126] | = | 6.19

* * *

Target: F508delCFTR (Homo sapiens, UniProt P13569, DEL508-508)
Test: Cell Surface Expression-Horse Radish Peroxidase (CSE-HRP) assay
Details: CFBE41o-F508delCFTR-HRP cells; F508delCFTR cell surface expression, luminescence; 18-24 hours at 33° C.; highest concentration 20 μM
Measured log10 of EC50 accompanies every entry in the list below.
ENDPOINT NAME: log10 of EC50 (log10 of the value in µM)

COMPOUND | log10 of EC50
COC(=O)c1cccc([C@H]2C[C@@H](NC(=O)[C@]3(C)CCc4cc(OC)ccc43)c3ccccc3O2)c1 | 0.40
COc1ccc(C(C)(C)C(=O)N[C@@H]2C[C@H](c3ccc(C(=O)O)cc3)Oc3cc(OC)ccc32)c(F)c1 | -0.46
COc1ccc2c(c1)CC[C@@]2(C)C(=O)N[C@@H]1C[C@H](c2cccc(C(=O)O)c2)Oc2cc(OC)ccc21 | -0.57
COc1ccc2c(c1)O[C@@H](c1ccc(C(=O)O)cc1)C[C@H]2NC(=O)C(C)(C)c1ccc2c(c1)CCO2 | -0.92
COc1ccc(C(C)(C)C(=O)N[C@@H]2C[C@H](c3cccc(C(=O)O)c3)Oc3cc(OC)ccc32)cc1 | -0.64
COc1ccc2c(c1)O[C@@H](c1ccc(C(=O)O)cc1)C[C@H]2NC(=O)C1(c2ccc(Cl)cc2)CCC1 | 0.32
COc1ccc2c(c1)O[C@@H](c1ccc(C(=O)O)cc1)C[C@H]2NC(=O)C1(c2ccccc2F)CC1 | 0.11
COc1ccc2c(c1)O[C@@H](c1cccc(C(=O)O)c1)C[C@H]2NC(=O)C1(C)CCc2cc(Cl)ccc21 (stereo partly drawn) | -0.17
COc1ccc2c(c1)O[C@@H](c1ccc(C(=O)O)cc1)C[C@H]2NC(=O)C1(c2cccc(F)c2)CC1 | -0.14
COc1ccc2c(c1)O[C@@H](c1ccc(C(=O)O)cc1)C[C@H]2NC(=O)C1(c2ccccc2Br)CCC1 | 0.42
COc1ccc2c(c1)CC[C@@]2(C)C(=O)N[C@@H]1C[C@H](c2cccc(C(=O)O)c2)Oc2ccccc21 | 0.08
COc1ccc2c(c1)[C@@](C)(C(=O)N[C@@H]1C[C@H](c3cccc(C(=O)O)c3)Oc3ccccc31)CC2 | 0.03
COC(=O)[C@H]1CC[C@@H]([C@H]2C[C@@H](NC(=O)C3(c4ccc5c(c4)OC(F)(F)O5)CC3)c3ccc(OC(F)F)cc3O2)CC1 (single isomer, unassigned) [Example 14D] | -0.20
O=C(N[C@@H]1C[C@H]([C@H]2CC[C@@H](C(=O)O)CC2)Oc2cc(OC(F)F)ccc21)C1(c2ccc3c(c2)OC(F)(F)O3)CC1 [Example 15A] | -0.28
COc1ccc2c(c1)O[C@@H](c1cccc(C(=O)O)c1)C[C@H]2NC(=O)C1(c2ccc(OC(F)(F)F)cc2)CC1 | 0.22
COc1ccc2c(c1)O[C@@H](c1ccc(C(=O)O)cc1)C[C@H]2NC(=O)C1(c2cccc(Br)c2)CC1 | -0.19
COc1ccc(C2(C(=O)N[C@@H]3C[C@H](c4ccc(C(=O)O)cc4)Oc4cc(OC)ccc43)CCC2)cc1 | -0.20

* * *

Biological target: F508delCFTR (Homo sapiens, UniProt P13569, DEL508-508)
Construct: expressed in transfected cells; host or cells: CFBE41o- (human lung derived epithelial cell line), doxycycline-inducible
Assay: Cell Surface Expression-Horse Radish Peroxidase (CSE-HRP) assay
Format: cell-based
Details: CFBE41o-F508delCFTR-HRP cells; F508delCFTR cell surface expression, luminescence; 18-24 hours at 33° C.; highest concentration 20 μM
Method: Cell Surface Expression-Horse Radish Peroxidase (CSE-HRP) Assay: A cellular assay for measuring the F508delCFTR cell surface expression after correction with test compounds was developed in human lung derived epithelial cell line (CFBE41o-) (Veit G et al, (2012) Mol Biol Cell. 23(21): 4188-4202). […] The raw counts from the experiment are analyzed using Accelrys® Assay Explorer v3.3. […]
Measured EC50 accompanies every entry in the list below.

MOLECULAR STRING | EC50
COc1ccc2c(c1)O[C@@H](c1ccc(C(=O)O)cc1)C[C@H]2NC(=O)C(C)(C)Oc1ccc(F)cc1 | > 20 µM
C[C@]1(C(=O)N[C@@H]2C[C@H](c3cccc(C(=O)O)c3)Oc3ccccc32)CCc2cc(Cl)ccc2O1 | > 20 µM
COc1ccc2c(c1)O[C@@H](c1ccc(C(=O)O)cc1)C[C@H]2NC(=O)C1(c2ccccc2)CC(F)(F)C1 | > 20 µM

* * *

Measured log10 of EC50 accompanies every entry in the list below.
Target: F508delCFTR (Homo sapiens, UniProt P13569, DEL508-508)
Assay: Cell Surface Expression-Horse Radish Peroxidase (CSE-HRP) assay
Settings: CFBE41o-F508delCFTR-HRP cells; F508delCFTR cell surface expression, luminescence; 18-24 hours at 33° C.; highest concentration 20 μM
ENDPOINT NAME: log10 of EC50 (log10 of the value in nM)

COMPOUND | ENDPOINT NAME | QUANTITATIVE READOUT
COc1ccc2c(c1)O[C@@H](c1ccc(C(=O)O)cc1)C[C@H]2NC(=O)C(C)(C)Oc1ccc(C#N)cc1 | log10 of EC50 | 3.12
COc1ccc(C2(C(=O)N[C@@H]3C[C@H](c4ccc(C(=O)O)cc4)Oc4cc(OC)ccc43)CC2)cc1 | log10 of EC50 | 1.85
COc1ccc2c(c1)O[C@@H](c1ccc(C(=O)O)cc1)C[C@H]2NC(=O)C1(c2cccc(C#N)c2)CC1 | log10 of EC50 | 3.26
COc1ccc2c(c1)O[C@@H](c1ccc(C(=O)O)cc1)C[C@H]2NC(=O)C(C)(C)Oc1cccc(Cl)c1 | log10 of EC50 | 3.26
COC(=O)[C@H]1CC[C@H]([C@H]2C[C@@H](NC(=O)C3(c4ccc5c(c4)OC(F)(F)O5)CC3)c3ccc(OC(F)F)cc3O2)CC1 (single isomer, unassigned) [Example 14E] | log10 of EC50 | 2.30
COc1ccc2c(c1)O[C@@H](c1ccc(C(=O)O)cc1)C[C@H]2NC(=O)C1(c2ccc(Br)cc2)CCC1 | log10 of EC50 | 3.19
COc1ccc2c(c1)O[C@@H](c1ccc(C(=O)O)cc1)C[C@H]2NC(=O)C1(C)CCc2cc(OC(F)(F)F)ccc21 (stereo partly shown) | log10 of EC50 | 3.12
COc1ccc2c(c1)O[C@@H](c1ccc(C(=O)O)cc1)C[C@H]2NC(=O)C1(c2cccc(OC(F)(F)F)c2)CCC1 | log10 of EC50 | 3.50
COc1ccc2c(c1)OC(c1ccc(OC)c(OC)c1)CC2NC(=O)C1(c2cccc(F)c2)CC1 (stereo not shown) | log10 of EC50 | 3.10
COC(=O)c1ccc([C@H]2C[C@@H](NC(=O)C3(C)CCc4cc(C)ccc43)c3ccc(OC)cc3O2)cc1 (stereo partly shown) | log10 of EC50 | 2.66
COc1ccc2c(c1)O[C@@H](c1ccc(C(=O)O)cc1)C[C@H]2NC(=O)C(C)(C)c1ccc(OC(F)(F)F)cc1 | log10 of EC50 | 3.13
COc1ccc2c(c1)CC[C@]2(C)C(=O)N[C@@H]1C[C@H](c2cccc(C(=O)O)c2)Oc2ccccc21 | log10 of EC50 | 2.61
COc1ccc2c(c1)O[C@@H](c1cccc(C(=O)O)c1)C[C@H]2NC(=O)[C@]1(C)CCc2cc(C)ccc21 (single isomer, unassigned) | log10 of EC50 | 2.64
COc1ccc2c(c1)O[C@@H](c1cccc(C(=O)O)c1)C[C@H]2NC(=O)C(C)(C)c1ccc2c(c1)OCCO2 | log10 of EC50 | 2.94
COc1ccc2c(c1)O[C@@H](c1ccc(C(=O)O)cc1)C[C@H]2NC(=O)C(C)(C)c1ccc2c(c1)OC(F)(F)O2 | log10 of EC50 | 2.74
COc1ccc2c(c1)O[C@@H](c1ccc(C(=O)O)cc1)C[C@H]2NC(=O)C(C)(C)c1ccc2c(c1)OCO2 | log10 of EC50 | 1.70
